Reported EC90 values for a set of compounds
# Tested on: Hepatitis C virus
# Experiment Notes: Antiviral activity against HCV in human hepatoma cells assessed as inhibition of RNA replication by replicon assay
# Assay type: functional, Hepacivirus hominis
Please respond with the number in nM and leave the unit unwritten.

Sample records with EC90:
1. CC(C)(C)[C@H](NC(=O)NC1(C(=O)c2ccccc2)CCCCC1)C(=O)N1C[C@H]2[C@@H]([C@H]1C(=O)NC(CC1CC1)C(=O)C(N)=O)C2(C)C (stereo partly specified) ... 2000
2. CC(C)(C)[C@H](NC(=O)NC1(C(O)c2ccccc2)CCCCC1)C(=O)N1C[C@H]2[C@@H]([C@H]1C(=O)NC(CC1CC1)C(=O)C(N)=O)C2(C)C (stereo partly specified) ... 400
3. CC(C)(C)[C@H](NC(=O)NC1(CS(=O)(=O)Cc2ccccc2)CCCCC1)C(=O)N1C[C@H]2[C@@H]([C@H]1C(=O)NC(CC1CC1)C(=O)C(N)=O)C2(C)C (stereo partly specified) ... 400

### Prompt EC90 for CC(C)(C)[C@H](NC(=O)NC1(CS(C)(=O)=O)CCCCC1)C(=O)N1C[C@H]2[C@@H]([C@H]1C(=O)NC(CC1CC1)C(=O)C(N)=O)C2(C)C (stereo partly specified) ?
### Response 300

### Prompt EC90 for CC1(NC(=O)N[C@H](C(=O)N2C[C@H]3[C@@H]([C@H]2C(=O)NC(CC2CC2)C(=O)C(N)=O)C3(C)C)C(C)(C)C)CCCCC1 (stereo partly specified) ?
### Response 250

### Prompt EC90 for CC(C)(C)[C@H](NC(=O)NC1(Cc2cccs2)CCCCC1)C(=O)N1C[C@H]2[C@@H]([C@H]1C(=O)NC(CC1CC1)C(=O)C(N)=O)C2(C)C (stereo partly specified) ?
### Response 200
